Target: T1, soluble human TNFR2 (human, UniProt P20333 23-257)
T1 construct: also called soluble TNFR2
T1 sequence (looked up): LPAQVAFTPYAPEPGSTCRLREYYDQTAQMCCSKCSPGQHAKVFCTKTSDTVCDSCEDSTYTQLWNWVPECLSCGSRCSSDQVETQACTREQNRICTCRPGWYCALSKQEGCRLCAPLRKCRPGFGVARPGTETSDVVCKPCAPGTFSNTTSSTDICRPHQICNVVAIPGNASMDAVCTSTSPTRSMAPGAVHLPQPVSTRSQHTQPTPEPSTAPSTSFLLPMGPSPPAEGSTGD
Assay: competition ELISA: plate-bound soluble human TNFR2, competitor biotinylated TNFα; IC50 relative to unlabelled TNFα = 1.00
observation_type: Relative IC50 (nM)
Write it as a number; the unit nM goes unstated.

Worked set:
chimeric SBT-002 (antibody, V domains shown, also called chSBT-002) VH: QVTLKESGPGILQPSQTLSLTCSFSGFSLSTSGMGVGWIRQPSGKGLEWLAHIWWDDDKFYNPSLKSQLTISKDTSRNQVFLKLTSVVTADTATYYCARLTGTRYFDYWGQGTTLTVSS VL: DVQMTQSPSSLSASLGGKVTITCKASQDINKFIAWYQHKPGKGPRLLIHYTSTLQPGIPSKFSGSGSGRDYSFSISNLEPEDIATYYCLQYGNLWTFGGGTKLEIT : 3.03
SBT-002 (antibody, V domains shown, Parental mouse antibody; also called mouse SBT-002) VH: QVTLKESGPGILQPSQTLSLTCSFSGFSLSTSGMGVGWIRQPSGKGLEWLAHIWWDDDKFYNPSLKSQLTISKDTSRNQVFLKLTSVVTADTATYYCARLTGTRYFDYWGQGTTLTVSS VL: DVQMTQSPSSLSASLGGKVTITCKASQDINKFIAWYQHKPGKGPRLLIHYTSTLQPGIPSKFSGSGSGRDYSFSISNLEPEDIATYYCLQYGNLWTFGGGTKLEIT : 2.33
chimeric SBT-004 (antibody, V domains shown, VH fused to a human IgG1 Fc domain; also called chSBT-004) VH: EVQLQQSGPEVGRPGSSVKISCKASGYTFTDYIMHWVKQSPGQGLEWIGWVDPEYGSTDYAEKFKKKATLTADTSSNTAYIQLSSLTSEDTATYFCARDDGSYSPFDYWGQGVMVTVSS VL: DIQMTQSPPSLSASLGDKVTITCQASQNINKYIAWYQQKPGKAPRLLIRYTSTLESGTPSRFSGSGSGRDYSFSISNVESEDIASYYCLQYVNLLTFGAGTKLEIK : 6.72

Please examine the following record next.
Just so you know, measured Relative IC50 for chimeric SBT-003 (antibody, V domains shown, also called chSBT-003) VH: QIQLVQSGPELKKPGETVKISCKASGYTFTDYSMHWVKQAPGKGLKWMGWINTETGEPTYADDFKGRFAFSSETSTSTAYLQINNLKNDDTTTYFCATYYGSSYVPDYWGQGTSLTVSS VL: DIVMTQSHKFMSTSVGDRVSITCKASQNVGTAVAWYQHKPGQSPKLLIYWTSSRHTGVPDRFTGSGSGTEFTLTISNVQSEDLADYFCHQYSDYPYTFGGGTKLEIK came out at 5.79

Reference source for all entries: patent US20190202925A1
